Ref: PubChem BioAssay (NCI)

In this section, each of the molecules is paired with its reported GI50.
tested on: SNB-19 CNS; assay: NCI tumour cell line growth inhibition, 48 h

{"Molecule": "Cc1ccc(Cl)cc1Nc1nc(C(F)(F)F)ccc1C(=O)Oc1ccc(Cl)cc1", "GI50": "9.42 µM"}
{"Molecule": "Cc1c2c(nn1-c1ccc(S/N=C3\\SCC(=O)CN3c3ccccc3)cc1)-c1ccccc1CC2", "GI50": "> 50 µM"}
{"Molecule": "Cc1ccc(/C=C2\\CCOC2=O)cc1", "GI50": "> 100 µM"}
{"Molecule": "COc1ccc(C2CC(c3cc(OC)c(OC)c(OC)c3)=NN2)cc1 (stereo not given)", "GI50": "15.6 µM"}
{"Molecule": "Cc1cc(S(N)(=O)=O)c(S/C(=N\\NS(=O)(=O)c2ccc(Cl)cc2)c2ccc(Cl)cc2)cc1Cl", "GI50": "> 100 µM"}

====

system: MDA-MB-231 breast; test: NCI tumour cell line growth inhibition, 48 h
The reader will find reported TGI values listed item by item below.
Endpoint name: TGI

{"Molecule": "O=[N+]([O-])c1ccc2[nH]cc(-c3c4ccccc4cc4[nH]c5ccc([N+](=O)[O-])cc5c34)c2c1", "Measured value": "5.83 µM"}
{"Molecule": "Cc1ccc(/C=C2\\CCOC2=O)cc1", "Measured value": "> 100 µM"}
{"Molecule": "CCOC(=O)c1cc(-c2ccc(OC)c(OC)c2)cn1C", "Measured value": "> 10 µM"}
{"Molecule": "CCC(C#N)N(Cc1cccc(CN(C(C)=O)C(C#N)CC)c1)C(C)=O (stereo unspecified)", "Measured value": "> 100 µM"}
{"Molecule": "c1ccc(COc2nc3ccc(C45CC6CC(CC(C6)C4)C5)cc3[nH]2)cc1", "Measured value": "> 80.9 µM"}
{"Molecule": "N#Cc1ccc(Nc2nc3nc[nH]c3c(=O)[nH]2)cc1", "Measured value": "> 100 µM"}
{"Molecule": "Cc1ccc(Nc2ncnc3sc(SCc4ccccc4)nc23)cc1", "Measured value": "> 100 µM"}
{"Molecule": "COc1ccc(N=NN2CCCC2)cc1", "Measured value": "47.7 µM"}
{"Molecule": "Nc1nc(Cl)cc(NCC2(CO)CC(CCCCc3ccccc3)C2)n1 (stereo unspecified)", "Measured value": "> 100 µM"}
{"Molecule": "CC1SC(c2cccs2)N(NC(=O)C(O)c2ccccc2)C1=O (stereo unspecified)", "Measured value": "> 100 µM"}
{"Molecule": "NS(=O)(=O)c1ccc(CNC(=S)NC(=O)Nc2ccc(Cl)c(Cl)c2)cc1", "Measured value": "25.5 µM"}

====

test system: NCI-H23 lung; experiment: NCI tumour cell line growth inhibition, 48 h
Below, each entry is listed with its recorded TGI.

{"Molecule": "Cc1ccc(S(=O)(=O)N2CCCCC2CCO)cc1 (stereo not given)", "Tested target": "NCI-H23 lung", "TGI": "> 100 µM"}
{"Molecule": "COc1ccc(N=NN2CCCC2)cc1", "Tested target": "NCI-H23 lung", "TGI": "> 100 µM"}
{"Molecule": "CC1OC(OP(=O)(OCc2ccccc2)OCc2ccccc2)C(OC(=O)c2ccccc2)C(OC(=O)c2ccccc2)C1I (stereo not given)", "Tested target": "NCI-H23 lung", "TGI": "> 100 µM"}
{"Molecule": "COC(=O)c1ccc2c(c1)nc(-c1ccc(Cl)cc1)n2-c1cc(C(C)(C)C)[nH]n1", "Tested target": "NCI-H23 lung", "TGI": "36 µM"}
{"Molecule": "COC(=O)CP1(=O)OC2C(C3CCC2(C)C3(C)C)N1c1cc(C(F)(F)F)cc(C(F)(F)F)c1 (stereo not given)", "Tested target": "NCI-H23 lung", "TGI": "86.3 µM"}
{"Molecule": "Cc1cc(Cl)ccc1N1C(=O)C(=O)C(c2nc3ccccc3s2)C(=O)C1=O", "Tested target": "NCI-H23 lung", "TGI": "> 100 µM"}
{"Molecule": "CC(=O)OCCOCNC(=S)N/N=C(\\C)c1ccco1", "Tested target": "NCI-H23 lung", "TGI": "> 100 µM"}
{"Molecule": "COC(=O)c1oc2c(C(=O)/C=C/c3ccc(OC)cc3)c(OCCCN3CCCCC3)ccc2c1C", "Tested target": "NCI-H23 lung", "TGI": "3.47 µM"}
{"Molecule": "CC(C)(C)[C@@H]1NC(=O)CN1C(=O)OCc1ccccc1", "Tested target": "NCI-H23 lung", "TGI": "> 100 µM"}
{"Molecule": "CC1=C(C)C(=O)C(C(C)C2=C(C)C(=O)C(C)=C(C)C2=O)=C(C)C1=O", "Tested target": "NCI-H23 lung", "TGI": "> 100 µM"}
